# Tested on: Staphylococcus aureus
# method-description: Antibacterial activity against methicillin-susceptible Staphylococcus aureus Smith in mouse dosed iv 1 hr after infection
# Assay type: functional
# ED50 per entry

| structure-as-smiles | assay-target | ED50, mg/kg |
| --- | --- | --- |
| C[C@H]1COc2c(N3CCN(C)CC3)c(F)cc3c(=O)c(C(=O)O)cn1c23.C[C@H]1COc2c(N3CCN(C)CC3)c(F)cc3c(=O)c(C(=O)O)cn1c23.O | Staphylococcus aureus | 0.78 |
| CO/N=C(\C(=O)N[C@@H]1C(=O)N2C(C(=O)O)=C(CSc3nc(=O)c(O)nn3C)CS[C@H]12)c1csc(N)n1 | Staphylococcus aureus | 3.72 |
| CC[C@H]1OC(=O)[C@H](C)[C@@H](O[C@H]2C[C@@](C)(OC)[C@@H](O)[C@H](C)O2)[C@H](C)[C@@H](O[C@@H]2O[C@H](C)C[C@H](N(C)C)[C@H]2O)[C@](C)(O)C[C@@H](C)C(=O)[C@H](C)[C@@H](O)[C@]1(C)O | Staphylococcus aureus | 2.55 |

====

# System: Streptococcus pneumoniae
# method-description: microbe, parasite or virus in culture
measurement-name: MIC (µg/mL)

| molecule | scale-unit | value-relation-sign | result |
| --- | --- | --- | --- |
| C=C[C@]1(C)C[C@@H](OC(=O)CSC2CCN(C(=O)CCn3cnc4c(N5CCNCC5)nc(N)nc43)CC2)[C@@]2(C)C3C(=O)CC[C@@]3(CC[C@H]2C)[C@@H](C)[C@@H]1O (stereo partly specified) | µg/mL | = | 0.063 |
| CN[C@H](CC(C)C)C(=O)N[C@H]1C(=O)N[C@@H](CC(N)=O)C(=O)N[C@H]2C(=O)N[C@H]3C(=O)N[C@H](C(=O)N[C@H](C(=O)O)c4cc(O)cc(O)c4-c4cc3ccc4O)[C@H](O)c3ccc(c(Cl)c3)Oc3cc2cc(c3O[C@@H]2O[C@H](CO)[C@@H](O)[C@H](O)[C@H]2O[C@H]2C[C@](C)(N)[C@H](O)[C@H](C)O2)Oc2ccc(cc2Cl)[C@H]1O [VANCOMYCIN] | µg/mL | = | 0.5 |
| CN(C)c1ccc(O)c2c1C[C@H]1C[C@H]3[C@H](N(C)C)C(O)=C(C(N)=O)C(=O)[C@@]3(O)C(O)=C1C2=O [MINOCYCLINE] | µg/mL | = | 8 |
| CO/N=C(\C(=O)N[C@@H]1C(=O)N2C(C(=O)O)=C(CSc3nc(=O)c(O)nn3C)CS[C@H]12)c1csc(N)n1 [CEFTRIAXONE] | µg/mL | = | 0.5 |
| CC[C@]1(C)C[C@@H](OC(=O)CSc2nnc(N)[nH]2)[C@]2(C)[C@H](C)CC[C@]3(CCC(=O)[C@H]32)[C@@H](C)[C@@H]1O [AZAMULIN] | µg/mL | = | 0.5 |
| CC[C@H]1OC(=O)[C@H](C)[C@@H](O[C@H]2C[C@@](C)(OC)[C@@H](O)[C@H](C)O2)[C@H](C)[C@@H](O[C@@H]2O[C@H](C)C[C@H](N(C)C)[C@H]2O)[C@](C)(O)C[C@@H](C)C(=O)[C@H](C)[C@@H](O)[C@]1(C)O [ERYTHROMYCIN] | µg/mL | > | 128 |

====

# System: Staphylococcus saccharolyticus
# method-description: Antibacterial activity against Staphylococcus saccharolyticus GAI 5520 by broth microdilution method
# Assay type: functional
Field: label. Allowed values: T (MIC < 0.06 µg/mL) or F (MIC >= 0.06 µg/mL).

| structure-as-smiles | answer-label |
| --- | --- |
| CN[C@H](CC(C)C)C(=O)N[C@H]1C(=O)N[C@@H](CC(N)=O)C(=O)N[C@H]2C(=O)N[C@H]3C(=O)N[C@H](C(=O)N[C@H](C(=O)O)c4cc(O)cc(O)c4-c4cc3ccc4O)[C@H](O)c3ccc(c(Cl)c3)Oc3cc2cc(c3O[C@@H]2O[C@H](CO)[C@@H](O)[C@H](O)[C@H]2O[C@H]2C[C@](C)(N)[C@H](O)[C@H](C)O2)Oc2ccc(cc2Cl)[C@H]1O | F |
| CC[C@H]1OC(=O)[C@H](C)[C@@H](O[C@H]2C[C@@](C)(OC)[C@@H](O)[C@H](C)O2)[C@H](C)[C@@H](O[C@@H]2O[C@H](C)C[C@H](N(C)C)[C@H]2O)[C@](C)(OC)C[C@@H](C)C(=O)[C@H](C)[C@@H](O)[C@]1(C)O | F |
| CN(C)c1ccc(O)c2c1C[C@H]1C[C@H]3[C@H](N(C)C)C(O)=C(C(N)=O)C(=O)[C@@]3(O)C(O)=C1C2=O | F |
| CC1(C)S[C@@H]2[C@H](NC(=O)[C@H](N)c3ccccc3)C(=O)N2[C@H]1C(=O)O | T |
| C[C@H]1COc2c(N3CCN(C)CC3)c(F)cc3c(=O)c(C(=O)O)cn1c23.C[C@H]1COc2c(N3CCN(C)CC3)c(F)cc3c(=O)c(C(=O)O)cn1c23.O | F |

====

# method-description: Solubility in water
# Assay type: physicochemical

| compound | solubility (mg/mL) |
| --- | --- |
| C=C[C@]1(C)C[C@@H](OC(=O)CSC2CCN(C(=O)CCn3cnc4c(N5CCNCC5)nc(N)nc43)CC2)[C@@]2(C)C3C(=O)CC[C@@]3(CC[C@H]2C)[C@@H](C)[C@@H]1O (stereo partly specified) | 50 |

====

# MIC per entry
# Test system: Enterococcus faecium
# method-description: Antibacterial activity against vancomycin-resistant Enterococcus faecium KU1778 clinical isolate by broth microdilution method
# Format: functional
measurement-name: MIC

| structure-as-smiles | measurement-name | result |
| --- | --- | --- |
| CN[C@H](CC(C)C)C(=O)N[C@H]1C(=O)N[C@@H](CC(N)=O)C(=O)N[C@H]2C(=O)N[C@H]3C(=O)N[C@H](C(=O)N[C@H](C(=O)O)c4cc(O)cc(O)c4-c4cc3ccc4O)[C@H](O)c3ccc(c(Cl)c3)Oc3cc2cc(c3O[C@@H]2O[C@H](CO)[C@@H](O)[C@H](O)[C@H]2O[C@H]2C[C@](C)(N)[C@H](O)[C@H](C)O2)Oc2ccc(cc2Cl)[C@H]1O | MIC | > 128 µg/mL |
| CC[C@H]1OC(=O)[C@H](C)[C@@H](O[C@H]2C[C@@](C)(OC)[C@@H](O)[C@H](C)O2)[C@H](C)[C@@H](O[C@@H]2O[C@H](C)C[C@H](N(C)C)[C@H]2O)[C@](C)(O)C[C@@H](C)C(=O)[C@H](C)[C@@H](O)[C@]1(C)O | MIC | > 128 µg/mL |
| CO/N=C(\C(=O)N[C@@H]1C(=O)N2C(C(=O)O)=C(CSc3nc(=O)c(O)nn3C)CS[C@H]12)c1csc(N)n1 | MIC | > 128 µg/mL |
